Below, each entry is listed with its recorded pIC50.
target: human α1H T-type channels (Homo sapiens, UniProt O95180); assay: T-type calcium channel block, whole cell patch clamp (α1H); conditions: HEK cells stably expressing human α1H; mainly non-inactivated protocol; values above 10 μM represented as 10 μM
Sequence (O95180 whole entry): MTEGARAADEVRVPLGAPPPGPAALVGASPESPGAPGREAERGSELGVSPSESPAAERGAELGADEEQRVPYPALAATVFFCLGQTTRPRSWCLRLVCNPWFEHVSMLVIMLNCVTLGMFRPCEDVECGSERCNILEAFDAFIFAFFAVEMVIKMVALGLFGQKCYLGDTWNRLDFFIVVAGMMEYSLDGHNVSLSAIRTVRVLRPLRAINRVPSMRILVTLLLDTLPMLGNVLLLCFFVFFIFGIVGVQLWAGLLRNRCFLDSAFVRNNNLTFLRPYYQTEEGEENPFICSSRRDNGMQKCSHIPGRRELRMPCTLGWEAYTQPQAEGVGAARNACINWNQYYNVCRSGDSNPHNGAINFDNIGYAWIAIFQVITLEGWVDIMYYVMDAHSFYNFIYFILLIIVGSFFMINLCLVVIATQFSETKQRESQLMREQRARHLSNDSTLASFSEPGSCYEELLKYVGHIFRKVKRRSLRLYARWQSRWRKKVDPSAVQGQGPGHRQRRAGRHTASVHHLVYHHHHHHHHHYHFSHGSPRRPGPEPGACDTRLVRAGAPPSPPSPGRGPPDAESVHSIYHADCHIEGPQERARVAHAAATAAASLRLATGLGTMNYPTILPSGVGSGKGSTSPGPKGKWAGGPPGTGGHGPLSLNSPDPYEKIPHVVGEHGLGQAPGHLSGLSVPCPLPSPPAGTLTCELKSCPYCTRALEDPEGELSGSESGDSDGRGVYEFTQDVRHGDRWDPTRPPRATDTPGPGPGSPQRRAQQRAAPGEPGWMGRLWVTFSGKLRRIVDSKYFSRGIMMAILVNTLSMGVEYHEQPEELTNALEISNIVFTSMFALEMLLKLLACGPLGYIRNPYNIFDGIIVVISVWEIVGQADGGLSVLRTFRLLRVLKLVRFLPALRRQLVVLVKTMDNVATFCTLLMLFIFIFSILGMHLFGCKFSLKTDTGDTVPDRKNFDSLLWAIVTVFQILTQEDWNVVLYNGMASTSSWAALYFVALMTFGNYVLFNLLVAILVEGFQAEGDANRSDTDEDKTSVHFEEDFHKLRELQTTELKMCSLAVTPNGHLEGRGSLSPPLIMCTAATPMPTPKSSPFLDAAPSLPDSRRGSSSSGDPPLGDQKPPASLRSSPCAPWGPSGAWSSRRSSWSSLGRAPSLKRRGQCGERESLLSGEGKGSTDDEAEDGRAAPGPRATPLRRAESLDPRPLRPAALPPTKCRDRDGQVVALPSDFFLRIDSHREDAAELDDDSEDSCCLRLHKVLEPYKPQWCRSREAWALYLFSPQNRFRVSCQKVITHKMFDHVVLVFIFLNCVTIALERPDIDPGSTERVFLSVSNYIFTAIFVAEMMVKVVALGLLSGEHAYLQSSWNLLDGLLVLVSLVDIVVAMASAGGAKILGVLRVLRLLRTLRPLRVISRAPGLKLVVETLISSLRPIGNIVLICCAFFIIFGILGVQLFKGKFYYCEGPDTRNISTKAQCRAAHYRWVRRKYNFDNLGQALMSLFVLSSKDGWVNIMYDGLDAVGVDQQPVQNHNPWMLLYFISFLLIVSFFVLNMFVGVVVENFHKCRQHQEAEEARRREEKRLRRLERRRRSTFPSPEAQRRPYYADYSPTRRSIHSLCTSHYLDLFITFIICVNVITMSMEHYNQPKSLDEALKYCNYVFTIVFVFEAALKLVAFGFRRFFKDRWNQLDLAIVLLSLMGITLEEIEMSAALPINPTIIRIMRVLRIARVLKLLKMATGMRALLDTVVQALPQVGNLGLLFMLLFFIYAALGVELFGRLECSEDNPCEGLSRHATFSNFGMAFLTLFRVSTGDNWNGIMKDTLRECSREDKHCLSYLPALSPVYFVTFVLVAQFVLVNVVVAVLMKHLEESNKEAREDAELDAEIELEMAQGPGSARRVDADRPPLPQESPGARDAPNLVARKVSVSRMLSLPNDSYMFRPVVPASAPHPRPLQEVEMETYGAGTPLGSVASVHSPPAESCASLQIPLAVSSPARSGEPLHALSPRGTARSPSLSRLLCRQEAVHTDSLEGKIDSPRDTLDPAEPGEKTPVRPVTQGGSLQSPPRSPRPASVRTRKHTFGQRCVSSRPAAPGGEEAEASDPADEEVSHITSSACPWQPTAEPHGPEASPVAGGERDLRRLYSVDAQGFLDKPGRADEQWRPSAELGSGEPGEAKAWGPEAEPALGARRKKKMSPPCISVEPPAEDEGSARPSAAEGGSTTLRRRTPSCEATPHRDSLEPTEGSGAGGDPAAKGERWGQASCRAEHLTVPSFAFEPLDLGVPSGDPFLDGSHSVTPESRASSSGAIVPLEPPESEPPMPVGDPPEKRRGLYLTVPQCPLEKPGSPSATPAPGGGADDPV
Hey, just a heads up that pIC50 is the negative log base 10 of the concentration in molar.

Here is how some molecules turned out for pIC50.
> print(dat)
                      smiles.representation  measure.name  readout.value
1  Cc1ccc(-c2csc(NC(=O)C[C@H]3CC[C@@H](NCC4(NC(=O)OC(C)(C)C)CCCC4)CC3)n2)cc1         pIC50           5.27
2  Cc1cccc(CN[C@H]2CC[C@H](CNC(=O)c3cc(C(F)(F)F)cc(C(F)(F)F)c3)CC2)c1O         pIC50           5.65
3  COc1cc(F)cc(C(=O)NC[C@H]2CC[C@H](NCC(=O)N3CCCC3(C)C)CC2)c1         pIC50           5.80

Item: `CC(C)CNC(=O)CN[C@H]1CC[C@@H](CNC(=O)c2cc(C(F)(F)F)cc(C(F)(F)F)c2)CC1` Test system: human α1H T-type channels (Homo sapiens, UniProt O95180) Read-out: pIC50 Value: ?
6.68

---

target: human α1H T-type channels (Homo sapiens, UniProt O95180); test: T-type calcium channel block, whole cell patch clamp (α1H); conditions: HEK cells stably expressing human α1H; mainly non-inactivated protocol; values above 10 μM represented as 10 μM
Measure name: IC50

What value of IC50 has been recorded for this entry: `CC(C)CNC(=O)CNC[C@H]1CC[C@H](NC(=O)c2cc(C(F)(F)F)cc(C(F)(F)F)c2)CC1`
1710 nM

Which IC50 reading was recorded for the compound `CC(C)(C)OC(=O)NCCN[C@H]1CC[C@@H](CNC(=O)c2cc(Cl)cc(C(F)(F)F)c2)CC1` ?
440 nM

Any idea what IC50 was measured for `CC(C)(C)NC(=O)CN[C@H]1CC[C@@H](CNC(=O)c2cc(C(F)(F)F)cc(C(F)(F)F)c2)CC1` ?
190 nM

What does the record list as IC50 for `Cc1cccc(CN[C@H]2CC[C@@H](CNC(=O)c3cc(C(F)(F)F)cc(C(F)(F)F)c3)CC2)c1O` ?
710 nM

What does the record list as IC50 for `Cc1cc(F)cc(C(=O)NC[C@H]2CC[C@@H](NCC(=O)NC(C)(C)C)CC2)c1` ?
1230 nM

Fill in: IC50 of `COc1cc(F)cc(C(=O)NC[C@H]2CC[C@@H](NCC(=O)N3CCCC3(C)C)CC2)c1` is ___
350 nM

Any idea what IC50 was measured for `CC(C)(C)c1nc(CN[C@H]2CC[C@H](CNC(=O)c3cc(C(F)(F)F)cc(C(F)(F)F)c3)CC2)no1` ?
3050 nM

---

biological target: human α1G T-type channels (Homo sapiens, UniProt O43497); assay: T-type calcium channel block, whole cell patch clamp (α1G); details: HEK cells stably expressing human α1G; mainly non-inactivated protocol; values above 10 μM represented as 10 μM, values below 0.30 μM represented as 0.30 μM
Sequence (O43497 whole entry): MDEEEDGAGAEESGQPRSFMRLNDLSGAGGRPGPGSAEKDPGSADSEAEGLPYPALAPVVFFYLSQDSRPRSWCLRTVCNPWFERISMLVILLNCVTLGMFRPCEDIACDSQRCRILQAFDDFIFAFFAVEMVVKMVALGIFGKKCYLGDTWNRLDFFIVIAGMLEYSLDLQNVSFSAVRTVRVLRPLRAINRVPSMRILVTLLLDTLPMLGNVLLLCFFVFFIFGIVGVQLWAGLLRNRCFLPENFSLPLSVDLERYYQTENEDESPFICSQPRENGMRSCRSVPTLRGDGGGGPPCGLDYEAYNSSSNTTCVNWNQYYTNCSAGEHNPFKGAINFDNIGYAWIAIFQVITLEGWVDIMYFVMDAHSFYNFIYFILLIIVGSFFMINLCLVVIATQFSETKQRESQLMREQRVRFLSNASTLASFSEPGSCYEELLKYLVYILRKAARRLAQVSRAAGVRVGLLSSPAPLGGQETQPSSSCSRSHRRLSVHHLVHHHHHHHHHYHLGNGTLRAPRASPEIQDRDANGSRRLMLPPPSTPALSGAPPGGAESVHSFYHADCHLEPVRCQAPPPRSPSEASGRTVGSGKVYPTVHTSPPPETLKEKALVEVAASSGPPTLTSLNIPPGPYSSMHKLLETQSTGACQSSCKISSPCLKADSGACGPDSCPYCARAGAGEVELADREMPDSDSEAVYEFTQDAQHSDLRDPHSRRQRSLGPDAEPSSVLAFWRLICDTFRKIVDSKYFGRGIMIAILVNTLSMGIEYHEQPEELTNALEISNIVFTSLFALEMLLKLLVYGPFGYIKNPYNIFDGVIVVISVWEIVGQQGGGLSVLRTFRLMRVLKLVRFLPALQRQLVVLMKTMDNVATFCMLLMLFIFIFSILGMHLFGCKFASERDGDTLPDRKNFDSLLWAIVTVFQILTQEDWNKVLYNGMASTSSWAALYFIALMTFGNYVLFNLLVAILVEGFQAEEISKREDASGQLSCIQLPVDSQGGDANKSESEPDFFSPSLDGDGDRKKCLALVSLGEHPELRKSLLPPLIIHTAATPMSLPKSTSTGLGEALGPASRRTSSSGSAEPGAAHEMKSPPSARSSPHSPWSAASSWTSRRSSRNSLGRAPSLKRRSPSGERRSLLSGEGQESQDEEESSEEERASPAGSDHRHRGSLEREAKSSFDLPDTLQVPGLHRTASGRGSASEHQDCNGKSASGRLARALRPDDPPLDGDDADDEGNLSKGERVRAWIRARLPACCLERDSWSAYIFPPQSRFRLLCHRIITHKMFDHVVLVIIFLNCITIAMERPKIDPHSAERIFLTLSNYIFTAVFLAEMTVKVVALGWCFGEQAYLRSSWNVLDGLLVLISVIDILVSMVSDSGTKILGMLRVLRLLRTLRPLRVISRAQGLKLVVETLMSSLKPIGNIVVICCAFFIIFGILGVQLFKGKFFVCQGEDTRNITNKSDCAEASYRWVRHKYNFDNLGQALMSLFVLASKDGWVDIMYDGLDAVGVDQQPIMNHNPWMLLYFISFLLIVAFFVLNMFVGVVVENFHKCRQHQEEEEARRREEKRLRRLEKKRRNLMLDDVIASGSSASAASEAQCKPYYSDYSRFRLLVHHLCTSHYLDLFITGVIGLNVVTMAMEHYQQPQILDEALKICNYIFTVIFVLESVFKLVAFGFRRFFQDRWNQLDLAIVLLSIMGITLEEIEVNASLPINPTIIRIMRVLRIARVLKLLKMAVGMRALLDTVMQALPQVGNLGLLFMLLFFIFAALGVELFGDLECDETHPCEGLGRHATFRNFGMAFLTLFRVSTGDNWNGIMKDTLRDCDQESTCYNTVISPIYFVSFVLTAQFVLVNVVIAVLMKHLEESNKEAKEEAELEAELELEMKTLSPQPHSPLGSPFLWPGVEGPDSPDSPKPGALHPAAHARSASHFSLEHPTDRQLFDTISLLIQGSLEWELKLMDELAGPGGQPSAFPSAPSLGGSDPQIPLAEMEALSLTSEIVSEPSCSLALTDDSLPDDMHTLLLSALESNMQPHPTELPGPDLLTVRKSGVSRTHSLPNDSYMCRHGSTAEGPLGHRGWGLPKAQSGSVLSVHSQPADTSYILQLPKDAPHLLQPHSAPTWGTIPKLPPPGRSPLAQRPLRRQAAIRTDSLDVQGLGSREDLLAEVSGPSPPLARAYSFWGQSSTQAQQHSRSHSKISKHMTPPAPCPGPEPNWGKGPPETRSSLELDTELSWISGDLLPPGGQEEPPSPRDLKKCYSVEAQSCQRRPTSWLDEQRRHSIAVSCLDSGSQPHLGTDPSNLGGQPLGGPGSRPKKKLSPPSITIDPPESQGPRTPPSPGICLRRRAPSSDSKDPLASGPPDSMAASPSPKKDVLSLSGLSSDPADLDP
Reported log10 of IC50 values for a set of compounds
Response schema: value (number) is log10 of IC50 in units of nM.

Guide cases for log10 of IC50, answers given:
> print(dat)
                      smiles.representation                        measurement.target  readout.value
1  O=C(C[C@H]1CC[C@@H](NC(=O)C2(O)CCNCC2)CC1)Nc1cc(C(F)(F)F)cc(C(F)(F)F)c1  human α1G T-type channels (Homo sapiens, UniProt O43497)           3.47
2  O=C(NC[C@H]1CC[C@@H](NCc2c(O)cccc2F)CC1)c1cc(F)cc(C(F)(F)F)c1  human α1G T-type channels (Homo sapiens, UniProt O43497)           3.00
3  CC1(NC(=O)CN[C@H]2CC[C@H](CNC(=O)c3cc(F)cc(Cl)c3)CC2)CCC1  human α1G T-type channels (Homo sapiens, UniProt O43497)           2.99

Any idea what its log10 of IC50 is? The compound is `Cc1ccc(-c2csc(NC(=O)C[C@H]3CC[C@@H](NC(=O)[C@@H]4C[C@@H](c5ccccc5)CN4)CC3)n2)cc1`
3.72

Fill blank: measured log10 of IC50 of the compound `COc1ccc(CN[C@H]2CC[C@@H](CNC(=O)c3cc(F)cc(C(F)(F)F)c3)CC2)c(OC)c1` is ____.
2.53
